Source of measurements: PubChem BioAssay AID588405

# Protocol description: inhibition of PEG-3 promoter activity – cell-based, HeLa, luciferase luminescence, primary screen (AID 588405)
# Condition label: HeLa PEG-Prom luciferase reporter, overnight, at 20 µM
Screen size: about 360,000 compounds; about 6,200 (1.7%) were called active.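 How the source made its calls: active means inhibition of at least 50% at 20 µM; inactive means the rest.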 The list comes from a sample in which actives are over-represented; it also holds close analogues and randomly drawn compounds.
Use one of these outcomes when replying: true for active, false for inactive

Inquiry: For this compound, state the assay outcome: COCCNC(=O)c1ccc(Cn2c(SCC(=O)NCC3CCCO3)nc3ccc(Br)cc3c2=O)cc1 (stereo not given)
Reply text: false

Inquiry: What classification did C/C(CC1CC(C)(C)OC1=O)=N/Nc1nc(-c2ccccc2)cs1 (stereo not given) end up with in this test?
Reply text: false

Inquiry: Record request — test call for CCC(C)Cn1c(O)cc2nn(-c3nc4ccccc4s3)c(=O)c-2c1C (stereo not given)
Reply text: true

Inquiry: Kindly provide the recorded test outcome for the following compound: OC(CNCC1CCCO1)Cn1c2ccc(Br)cc2c2cc(Br)ccc21 (stereo not given)
Reply text: true

We now examine a further compound.
Inquiry: Write down the call the test reported for this compound. Item: `Fc1cccc(Cc2c(-c3ccc(Cl)cc3)nc3ccc(Cl)cn23)c1`
Reply text: false

* * *

# Protocol description: inhibition of PEG-3 promoter activity – cell-based, HeLa, luciferase luminescence, primary screen (AID 588405)
# Condition label: HeLa PEG-Prom luciferase reporter, overnight, at 20 µM
The whole screen tested about 360,000 compounds, of which about 6,200 (1.7%) were called active.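 Rule for the calls: active = inhibition of at least 50% at 20 µM; inactive = the rest.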 What follows is part of a selection rich in actives, with near analogues and random picks from the rest.
Tick one outcome: 1 (active), -1 (inactive)

Below are worked cases with known answers.
Inquiry: How did this test come out for `CCOC(=O)c1c(-c2ccccc2)oc2cc(Br)c(O)c(C=O)c12` ?
Reply text: 1

Inquiry: Could you please tell me the result logged for `CCOC(=O)c1c(C)oc2cc(Sc3ccccc3)c(O)c(O)c12` in this assay?
Reply text: -1

Inquiry: For this compound, state the assay outcome: `CNC(=O)c1ccsc1NC(=O)c1ccc(S(=O)(=O)N2CCc3ccccc32)cc1`
Reply text: 1

Inquiry: Identify the outcome logged in this assay for the compound shown: COC(=O)C1=C(C)N(C(C)c2ccccc2)C(=O)/C1=C\c1ccco1 (stereo not given)
Reply text: -1

Then there is this compound:
Inquiry: Hey, what did the test say about CC1CN(S(=O)(=O)c2ccc(C(=O)Nc3sccc3C(N)=O)cc2)CC(C)O1 (stereo not given) ?
Reply text: -1

* * *

# Protocol description: inhibition of PEG-3 promoter activity – cell-based, HeLa, luciferase luminescence, primary screen (AID 588405)
# Condition label: HeLa PEG-Prom luciferase reporter, overnight, at 20 µM
Among all 360,000 compounds or so, about 6,200 (1.7%) were called active.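 The calls were made as follows: active = inhibition of at least 50% at 20 µM; inactive = the rest.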 Many of the other results were omitted from the sample, so actives are more common in it than they were.
API: response.call in 1 for active, -1 for inactive

Illustrative cases are given below, each with its answer.
Inquiry: Please indicate how the test categorized `Cc1ccc(C(=O)N/C(=C/c2ccc(-c3cccc([N+](=O)[O-])c3)o2)C(=O)NCCCN(C)C)cc1` .
Reply text: 1

Inquiry: Outcome? `Cc1occc1C(=O)N/N=C/c1ccc(-c2cccc([N+](=O)[O-])c2)o1`
Reply text: -1

More entries:
Inquiry: What classification did `COc1ccc(CN(C(=O)CSc2nnc(-c3ccc(OC)c(OC)c3)o2)c2ccc(F)cc2)cc1` end up with in this test?
Reply text: -1

Inquiry: Assay outcome for CCCNC(=O)C1(C)CCN(C(=O)c2ccc(F)cc2Cl)C1 (stereo not given) : what was it?
Reply text: -1

Inquiry: Please indicate how the test categorized CCCS(=O)(=O)NC(=O)C1(C)CCCN(C(=O)c2cc(C)on2)C1 (stereo not given) .
Reply text: -1

* * *

# Protocol description: inhibition of PEG-3 promoter activity – cell-based, HeLa, luciferase luminescence, primary screen (AID 588405)
# Condition label: HeLa PEG-Prom luciferase reporter, overnight, at 20 µM, active compounds read high
Hit rate of the full screen: of about 360,000 compounds, about 6,200 (1.7%) were called active. The sample as a whole holds a higher share of actives than the screen did.
Outcome: 1 (yes) for inhibition of at least 10%; 0 (no) for anything lower.

Inquiry: Has COc1ccc(NC(=O)C2Cc3c(-c4ccc5c(c4)OCO5)ccnc3O2)cn1 (centres undefined) a recorded inhibition greater than or equal to 10%?
Reply text: 1 (yes)

Inquiry: # bool: inhibition of `CNc1cncc(-c2ccc(NS(C)(=O)=O)cc2)n1` >= 10%
Reply text: 1 (yes)

Inquiry: In plain terms: is recorded inhibition at least 10% for CCCCNC(=O)C(C)N(CCN(C)C)C(=O)CCCCCN1C(=O)NC(c2ccc(Cl)cc2)C(C(=O)OCc2ccccc2)=C1C (centres undefined) ?
Reply text: 1 (yes)

Inquiry: Item `O=C(NCC12CC3CC(C1)CC(CNC(=O)N1CCCC1)(C3)C2)N1CCCC1` with inhibition of 10% or above?
Reply text: 1 (yes)

Inquiry: Does the reported inhibition for `O=C(/C=C/[C@H]1O[C@@H](n2cnc3c(NC(=O)c4ccccc4)ncnc32)[C@H](O)[C@@H]1O)NCc1ccccc1` fall at or above the 10% mark?
Reply text: 0 (no)

Inquiry: Please check the record `Cc1cc2nc(-c3ccc(Cl)cc3)c(Cc3cccc(F)c3)n2c(C)c1Br` and state if its inhibition is at or above 10%.
Reply text: 0 (no)

Inquiry: Exam item: decide whether the reported inhibition for COc1ccc(NC(=O)CN2C(=O)NC(C)(c3ccccc3)C2=O)cn1 (centres undefined) is at least 10%.
Reply text: 0 (no)

Inquiry: Please tell me: is the compound `O=C(Nc1ncccc1O)c1ccc(C(=O)c2ccccc2)cc1` at or over 10% in terms of inhibition?
Reply text: 0 (no)

Inquiry: Does the compound `O=C(Nc1ccc2ccccc2c1[N+](=O)[O-])c1ccccc1` have recorded inhibition that is 10% or more?
Reply text: 0 (no)

Inquiry: Entry `CNC(=O)c1[nH]cnc1C(=O)N[C@@H](CC(C)C)C(=O)OCc1ccccc1` : is its inhibition no less than 10%?
Reply text: 0 (no)

More entries:
Inquiry: Could you please find out whether `O=C(NC1=CC(=O)c2ccccc2C1=O)c1ccccc1` has inhibition that meets 10% or exceeds it?
Reply text: 1 (yes)

Inquiry: Would you say `O=C(Nc1ccc(OCCO)cc1)c1csc([C@H]2C[C@H](O)[C@@H](CO)O2)n1` shows inhibition at minimum 10%?
Reply text: 1 (yes)

Inquiry: Could you tell me if the measured inhibition of `CC(C)CN(C(=O)COC(=O)c1ccc2ccccc2c1)c1c(N)n(Cc2ccccc2)c(=O)[nH]c1=O` reaches 10% or more?
Reply text: 1 (yes)

Inquiry: Could you tell me if the measured inhibition of CCOC(=O)CCCNC(=O)CN1C(=O)NC(CCc2ccccc2)C1=O (centres undefined) reaches 10% or more?
Reply text: 0 (no)

Inquiry: State whether the measured inhibition reaches 10%, counting equality as reaching it, for CCOC(=O)C1=C(CCc2ccccc2)NC(=O)NC1c1ccc2ccccc2c1 (centres undefined)
Reply text: 1 (yes)

Inquiry: Determine whether measured inhibition meets or exceeds 10% for CCOC(=O)C1=C(C)N(C[C@@H]2CC[C@@H](Cc3ccc(-c4ccccc4)cc3)O2)C(=O)NC1c1ccc([N+](=O)[O-])cc1 (some centres undefined)
Reply text: 1 (yes)

Inquiry: Exam item: decide whether the reported inhibition for COc1ccc(C2=Nc3ccccc3NC(=O)C2N(C(=O)c2cc3ccccc3[nH]2)c2ccccc2)cc1 (centres undefined) is at least 10%.
Reply text: 0 (no)

Inquiry: Is it the case that `CCOC(=O)C1=CC[C@@H](c2ccncc2)N(S(=O)(=O)c2ccc(C)cc2)C1` has inhibition reaching or exceeding 10%?
Reply text: 1 (yes)

Inquiry: Reported inhibition reaches at least 10% for `Cc1csc(=O)n1CC(=O)OCC(=O)N(CC(C)C)c1c(N)n(Cc2ccccc2)c(=O)[nH]c1=O` ?
Reply text: 0 (no)

* * *

# Protocol description: inhibition of PEG-3 promoter activity – cell-based, HeLa, luciferase luminescence, primary screen (AID 588405)
# Condition label: HeLa PEG-Prom luciferase reporter, overnight, at 20 µM, active compounds read high
Among all 360,000 compounds or so, about 6,200 (1.7%) were called active. This excerpt belongs to a sample that is enriched for actives.
Measured property: inhibition (%)
Supply the numeric figure in %, leaving out any unit text.

Inquiry: Give inhibition for COc1ccc(C(NC(=O)C2CCN(CCCc3ccccc3)CC2)c2cccs2)cc1 (configuration not stated)
Reply text: 2.75

Inquiry: Input `O=C(CCl)Nc1ccc(Sc2ccc(NC(=O)CCl)cc2)cc1` , output reported inhibition.
Reply text: 99.8

---
Inquiry: Answer with reported inhibition of `COc1ccccc1NC(=O)Nc1nc(CC(=O)Nc2ccccc2F)cs1`
Reply text: 4.34

Inquiry: Tell me inhibition reported for `C[C@H](NC(=O)CC[C@H]1O[C@@H](n2ccc(=O)[nH]c2=O)[C@H](O)[C@@H]1O)c1cccc2ccccc12`
Reply text: 6.63

Inquiry: Provide inhibition value for the following compound: `C=CCn1c(C)cc(C2=NNC(=NCC)SC2)c1C`
Reply text: 106

Inquiry: Output measured inhibition for this item: `CCc1nc2c(OCCC3CCCCC3)cccn2c1N(C)C(=O)c1ccco1`
Reply text: 5.45

Inquiry: In one line, give reported inhibition of the entry `COc1ccc(C)cc1NC(=O)CCS(=O)(=O)c1cccc2nonc12` .
Reply text: -14.4
